Sourced from patent US20130338190A1

Property: AUC(0-t); scope: individual molecules
protocol: Pharmacokinetics assay in rats (LC/MS/MS of plasma)
Format: in vivo, Sprague Dawley (SD) rats
study_conditions: both sexes, Sprague-Dawley, rat, plasma, iv, 25 mg/kg, vein (tail vein injection), read-out: AUC0-t
Where a name gives a salt, the structure may show the parent alone.

These recorded examples may help you get a feel for the data.
molecule	AUC(0-t)
CCOc1cc2ncc(C#N)c(Nc3ccc(OCc4ccccn4)c(Cl)c3)c2cc1NC(=O)/C=C/[C@H]1CCCN1C.CS(=O)(=O)O [Example 4]	146 µg·h/mL
CCOc1cc2ncc(C#N)c(Nc3ccc(OCc4ccccn4)c(Cl)c3)c2cc1NC(=O)/C=C/[C@H]1CCCN1C.O=C(O)/C=C\C(=O)O [Example 1]	222 µg·h/mL
CCOc1cc2ncc(C#N)c(Nc3ccc(OCc4ccccn4)c(Cl)c3)c2cc1NC(=O)/C=C/[C@H]1CCCN1C [Example 9, dihydrochloride]	115 µg·h/mL

Lab note: measured AUC(0-t) of CCOc1cc2ncc(C#N)c(Nc3ccc(OCc4ccccn4)c(Cl)c3)c2cc1NC(=O)/C=C/[C@H]1CCCN1C.Cc1ccc(S(=O)(=O)O)cc1 [Example 7] was 113 µg·h/mL
